- test.target: recombinant human NaV1.8 stably transfected HEK cells (Homo sapiens)
- Construct: expressed in transfected cells; host or cells: HEK cells, stably transfected
- Sequence (Q9Y5Y9 whole entry): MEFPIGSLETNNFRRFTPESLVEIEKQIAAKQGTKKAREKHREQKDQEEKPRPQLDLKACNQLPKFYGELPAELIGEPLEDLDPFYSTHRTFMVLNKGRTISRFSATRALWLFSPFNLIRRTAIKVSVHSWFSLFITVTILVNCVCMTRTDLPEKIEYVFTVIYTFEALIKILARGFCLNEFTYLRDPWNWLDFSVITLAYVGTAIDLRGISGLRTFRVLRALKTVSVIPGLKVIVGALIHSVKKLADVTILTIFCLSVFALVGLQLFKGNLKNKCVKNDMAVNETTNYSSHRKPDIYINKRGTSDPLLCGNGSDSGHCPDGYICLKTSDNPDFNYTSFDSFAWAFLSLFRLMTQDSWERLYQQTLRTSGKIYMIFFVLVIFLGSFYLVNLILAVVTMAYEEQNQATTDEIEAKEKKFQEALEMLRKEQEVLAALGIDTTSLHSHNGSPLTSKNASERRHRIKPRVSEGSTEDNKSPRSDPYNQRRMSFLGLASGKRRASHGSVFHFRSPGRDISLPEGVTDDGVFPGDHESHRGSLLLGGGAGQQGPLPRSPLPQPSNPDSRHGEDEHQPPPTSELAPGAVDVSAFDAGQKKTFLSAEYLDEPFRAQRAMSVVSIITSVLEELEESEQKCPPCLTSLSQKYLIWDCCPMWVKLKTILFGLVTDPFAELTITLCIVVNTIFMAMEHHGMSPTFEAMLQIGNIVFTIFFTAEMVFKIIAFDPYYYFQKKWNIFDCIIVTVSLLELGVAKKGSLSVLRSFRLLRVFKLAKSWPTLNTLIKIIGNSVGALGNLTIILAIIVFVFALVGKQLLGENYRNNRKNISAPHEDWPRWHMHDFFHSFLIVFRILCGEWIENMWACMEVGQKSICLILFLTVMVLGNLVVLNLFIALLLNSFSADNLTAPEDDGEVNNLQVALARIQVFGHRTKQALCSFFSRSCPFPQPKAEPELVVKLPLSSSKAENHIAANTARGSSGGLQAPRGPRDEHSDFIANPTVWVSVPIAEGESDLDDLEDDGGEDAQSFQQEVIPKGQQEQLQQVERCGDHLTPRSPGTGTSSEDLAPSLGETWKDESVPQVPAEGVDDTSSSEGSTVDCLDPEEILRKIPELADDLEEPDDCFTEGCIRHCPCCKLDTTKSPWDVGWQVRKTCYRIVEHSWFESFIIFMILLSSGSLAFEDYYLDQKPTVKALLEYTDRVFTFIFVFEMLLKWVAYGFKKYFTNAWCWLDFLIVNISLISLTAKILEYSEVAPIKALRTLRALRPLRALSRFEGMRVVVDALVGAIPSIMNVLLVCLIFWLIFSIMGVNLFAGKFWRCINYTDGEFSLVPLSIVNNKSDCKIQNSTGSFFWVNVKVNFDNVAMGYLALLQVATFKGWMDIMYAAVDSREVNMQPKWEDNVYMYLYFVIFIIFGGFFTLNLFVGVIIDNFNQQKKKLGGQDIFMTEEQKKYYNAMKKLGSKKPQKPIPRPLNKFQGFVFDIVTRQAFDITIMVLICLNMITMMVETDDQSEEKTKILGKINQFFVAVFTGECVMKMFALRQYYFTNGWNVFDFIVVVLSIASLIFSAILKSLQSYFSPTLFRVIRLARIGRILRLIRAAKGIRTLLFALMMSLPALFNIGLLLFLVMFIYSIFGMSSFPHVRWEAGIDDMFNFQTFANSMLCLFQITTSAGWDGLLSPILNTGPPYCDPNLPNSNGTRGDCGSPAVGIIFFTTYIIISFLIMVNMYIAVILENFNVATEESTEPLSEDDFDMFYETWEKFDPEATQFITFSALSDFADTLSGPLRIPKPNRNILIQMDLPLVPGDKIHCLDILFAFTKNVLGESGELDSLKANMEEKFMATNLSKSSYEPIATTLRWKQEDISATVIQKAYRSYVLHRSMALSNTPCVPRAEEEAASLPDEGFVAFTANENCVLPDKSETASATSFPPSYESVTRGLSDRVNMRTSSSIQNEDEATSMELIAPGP
- test.details: Compound profiling on NaV1.8, human NaV1.8 cell line, SyncroPatch384PE automated patch clamp assay (Example 102, first set of compounds, Table 16)
- Format: cell-based
- cond: resting state block (P1 measurement), human NaV1.8 HEK cells, Table 16 (first set of compounds), read-out: P1IC50
- Procedure: Compound Profiling on NaV1.8—Human NaV1.8 Cell Line—SyncroPatch384PE Assay Compounds were tested on recombinant human NaV1.8 stably transfected HEK cells using the SyncroPatch384PE system, an automated patch clamp device. […] Compounds were tested in triplicate in 0.1% DMSO and 0.030% Pluronic Acid. […] Compounds were then applied by the SynchroPatch into each well and the current was recorded for five minutes in EC, followed by application of tetracaine to achieve full block at the end of the experiment. […]
assay.readout: IC50

Sample answers from the record:
COc1cc(C#N)ccc1Oc1nnc(C2=CCOC2)c(C)c1C(=O)Nc1cccc(S(C)(=N)=O)c1 (stereo not shown)	40 to 200 nM
CS(=N)(=O)c1cccc(NC(=O)c2cc(C(F)(F)F)cnc2OC2CC3C(C2)C3(F)F)c1 (stereo not shown)	200 to 500 nM
COc1cc(C#N)ccc1Oc1ncc(C(F)(F)F)cc1C(=O)Nc1cccc(S(N)(=O)=O)c1	≤ 20 nM
Cc1nc(OC2CCC2)ccc1Oc1ncc(C(F)(F)F)cc1C(=O)Nc1cccc(S(C)(=N)=O)c1 (stereo not shown)	40 to 200 nM

Kindly note the recorded IC50 for Cc1c(C(F)(F)F)nnc(Oc2ccc(C(N)=O)cc2)c1C(=O)Nc1cccc(S(C)(=N)=O)c1 (stereo not shown) , which is 200 to 500 nM

Kindly note the recorded IC50 for Cc1cc(F)ccc1Oc1ncc(Cl)c(C)c1C(=O)Nc1cccc(S(C)(=N)=O)c1 (stereo not shown) , which is ≤ 20 nM

Kindly note the recorded IC50 for Cc1cc(F)ccc1Oc1nnc(C(F)(F)F)c(C2CC2)c1C(=O)Nc1cccc([S@@](C)(=N)=O)c1 , which is 20 to 40 nM
